# MCC at 72 h listing for each entry below
Assay: Cytotoxicity against MDCK cells assessed as alteration in cell morphology after 3 days by microscopic method
Format: cell-based, Canis lupus familiaris
Details: dog
Response body: numeric value in µM, unit text excluded.

These solved cases illustrate the format of a correct answer.
>  <compound>
CCCSC1=C(SCCC)C(=O)N(CCOCCOCCOCCOCc2cn(C3C(=O)N[C@@H]4Cc5ccc(c(Cl)c5)Oc5cc6cc(c5O)Oc5ccc(cc5Cl)[C@@H](O[C@@H]5O[C@H](CO)[C@@H](O)[C@H](O)[C@H]5NC(C)=O)[C@H]5NC(=O)[C@H](NC(O)[C@@H]6NC(=O)[C@@H](NC4=O)c4cc(O)cc(c4)Oc4cc3ccc4O)c3ccc(O)c(c3)-c3c(O)cc(O)cc3[C@H](C(=O)O)NC5=O)nn2)C1=O (stereo partly specified)

>  <readout-units>
µM

>  <MCC at 72 h>
20

$$$$
>  <compound>
CC(=O)N[C@H]1[C@H](O[C@@H]2c3ccc(c(Cl)c3)Oc3cc4cc(c3O)Oc3ccc(cc3Cl)C[C@H]3NC(=O)[C@H](NS(=O)(=O)c5cccc6c(N(C)C)cccc56)c5ccc(O)c(c5)Oc5cc(O)cc(c5)[C@H](NC3=O)C(=O)N[C@H]4C(O)N[C@H]3C(=O)N[C@H]2C(=O)N[C@@H](C(=O)O)c2cc(O)cc(O)c2-c2cc3ccc2O)O[C@H](CO)[C@@H](O)[C@@H]1O (stereo partly specified)

>  <readout-units>
µM

>  <MCC at 72 h>
20

$$$$
>  <compound>
CC(=O)N[C@H]1[C@H](O[C@@H]2c3ccc(c(Cl)c3)Oc3cc4cc(c3O)Oc3ccc(cc3Cl)C[C@H]3NC(=O)[C@H](n5cc(COc6cccc7ccccc67)nn5)c5ccc(O)c(c5)Oc5cc(O)cc(c5)[C@H](NC3=O)C(=O)N[C@H]4C(O)N[C@H]3C(=O)N[C@H]2C(=O)N[C@@H](C(=O)O)c2cc(O)cc(O)c2-c2cc3ccc2O)O[C@H](CO)[C@@H](O)[C@@H]1O (stereo partly specified)

>  <readout-units>
µM

>  <MCC at 72 h>
20

$$$$

Now let's try a different one.
## Input Return reported MCC at 72 h. Input compound: CCCCCCSC1=C(SCCCCCC)C(=O)N(CCOCCOCCOCCOCc2cn(C3C(=O)N[C@@H]4Cc5ccc(c(Cl)c5)Oc5cc6cc(c5O)Oc5ccc(cc5Cl)[C@@H](O[C@@H]5O[C@H](CO)[C@@H](O)[C@H](O)[C@H]5NC(C)=O)[C@H]5NC(=O)[C@H](NC(O)[C@@H]6NC(=O)[C@@H](NC4=O)c4cc(O)cc(c4)Oc4cc3ccc4O)c3ccc(O)c(c3)-c3c(O)cc(O)cc3[C@H](C(=O)O)NC5=O)nn2)C1=O (stereo partly specified)
## Output 20

====

Assay: Cytotoxicity against MDCK cells assessed as alteration in cell morphology after 3 days by microscopic method
Type: cell-based, Canis lupus familiaris
Details: dog
measured-endpoint: MCC at 72 h (µM)
Response body: numeric value in µM, unit text excluded.

## Input Return reported MCC at 72 h. Input compound: CC(=O)Nc1ccc(S(=O)(=O)N[C@H]2C(=O)N[C@@H]3Cc4ccc(c(Cl)c4)Oc4cc5cc(c4O)Oc4ccc(cc4Cl)[C@@H](O[C@@H]4O[C@H](CO)[C@@H](O)[C@H](O)[C@H]4NC(C)=O)[C@H]4NC(=O)[C@H](NC(O)[C@@H]5NC(=O)[C@@H](NC3=O)c3cc(O)cc(c3)Oc3cc2ccc3O)c2ccc(O)c(c2)-c2c(O)cc(O)cc2[C@H](C(=O)O)NC4=O)cc1 (some centres not stated)
## Output 100

====

System: H3N2 subtype
Test: Antiviral activity against Influenza A virus A/HK/7/87(H3N2) infected in MDCK cells assessed as reduction in virus-induced cytopathic effect after 3 days by microscopic method
Format: functional, organism-based
Conditions: A/Hong Kong/7/1987(H3N2), 72 h
# pEC50 listing for each entry below
Scale: negative log10 of molar concentration, which is what pEC50 denotes.

>  <molecule>
NC12CC3CC(CC(C3)C1)C2

>  <pEC50>
4.96

$$$$

Now let's try a different one.
## Input Return reported pEC50. Input molecule: CCCCCCCCO[C@@H]1[C@@H](OCCCCCCCC)[C@@H](OC)O[C@H](COCCOCCOCCOCCOCc2cn([C@H]3C(=O)N[C@@H]4Cc5ccc(c(Cl)c5)Oc5cc6cc(c5O)Oc5ccc(cc5Cl)[C@@H](O[C@@H]5O[C@H](CO)[C@@H](O)[C@H](O)[C@H]5NC(C)=O)[C@H]5NC(=O)[C@H](NC(O)[C@@H]6NC(=O)[C@@H](NC4=O)c4cc(O)cc(c4)Oc4cc3ccc4O)c3ccc(O)c(c3)-c3c(O)cc(O)cc3[C@H](C(=O)O)NC5=O)nn2)[C@H]1OCc1ccc(OC)cc1 (some centres undefined)
## Output 5.74

====

# MCC at 72 h listing for each entry below
Assay: Cytotoxicity against MDCK cells assessed as alteration in cell morphology after 3 days by microscopic method
Assay type: cell-based, Canis lupus familiaris
Conditions: dog
Response body: numeric value in µM, unit text excluded.

These solved cases illustrate the format of a correct answer.
>  <molecule>
CCCCCCCCS(=O)(=O)N[C@H]1C(=O)N[C@@H]2Cc3ccc(c(Cl)c3)Oc3cc4cc(c3O)Oc3ccc(cc3Cl)[C@@H](O[C@@H]3O[C@H](CO)[C@@H](O)[C@H](O)[C@H]3NC(C)=O)[C@H]3NC(=O)[C@H](NC(O)[C@@H]4NC(=O)[C@@H](NC2=O)c2cc(O)cc(c2)Oc2cc1ccc2O)c1ccc(O)c(c1)-c1c(O)cc(O)cc1[C@H](C(=O)O)NC3=O (stereo partly specified)

>  <readout-units>
µM

>  <MCC at 72 h>
20

$$$$
>  <molecule>
CCCCCCS(=O)(=O)N[C@H]1C(=O)N[C@@H]2Cc3ccc(c(Cl)c3)Oc3cc4cc(c3O)Oc3ccc(cc3Cl)[C@@H](O[C@@H]3O[C@H](CO)[C@@H](O)[C@H](O)[C@H]3NC(C)=O)[C@H]3NC(=O)[C@H](NC(O)[C@@H]4NC(=O)[C@@H](NC2=O)c2cc(O)cc(c2)Oc2cc1ccc2O)c1ccc(O)c(c1)-c1c(O)cc(O)cc1[C@H](C(=O)O)NC3=O (stereo partly specified)

>  <readout-units>
µM

>  <MCC at 72 h>
100

$$$$

Now let's try a different one.
## Input Return reported MCC at 72 h. Input molecule: CCCCCCCCOCc1cn(CCOCCOCCOCCOCc2cn([C@H]3C(=O)N[C@@H]4Cc5ccc(c(Cl)c5)Oc5cc6cc(c5O)Oc5ccc(cc5Cl)[C@@H](O[C@@H]5O[C@H](CO)[C@@H](O)[C@H](O)[C@H]5NC(C)=O)[C@H]5NC(=O)[C@H](NC(O)[C@@H]6NC(=O)[C@@H](NC4=O)c4cc(O)cc(c4)Oc4cc3ccc4O)c3ccc(O)c(c3)-c3c(O)cc(O)cc3[C@H](C(=O)O)NC5=O)nn2)nn1 (stereo partly specified)
## Output 20

====

# MCC at 72 h listing for each entry below
Assay: Cytotoxicity against MDCK cells assessed as alteration in cell morphology after 3 days by microscopic method
Type: cell-based, Canis lupus familiaris
Conditions: dog
Response body: numeric value in µM, unit text excluded.

## Input Return reported MCC at 72 h. Input compound: CCCSC1=C(SCCC)C(=O)N([C@H]2C(=O)N[C@@H]3Cc4ccc(c(Cl)c4)Oc4cc5cc(c4O)Oc4ccc(cc4Cl)[C@@H](O[C@@H]4O[C@H](CO)[C@@H](O)[C@H](O)[C@H]4NC(C)=O)[C@H]4NC(=O)[C@H](NC(O)[C@@H]5NC(=O)[C@@H](NC3=O)c3cc(O)cc(c3)Oc3cc2ccc3O)c2ccc(O)c(c2)-c2c(O)cc(O)cc2[C@H](C(=O)O)NC4=O)C1=O (stereo partly drawn)
## Output 20

## Input Return reported MCC at 72 h. Input compound: CCCCCCCCSC1=C(SCCCCCCCC)C(=O)N(Cc2cn(C3C(=O)N[C@@H]4Cc5ccc(c(Cl)c5)Oc5cc6cc(c5O)Oc5ccc(cc5Cl)[C@@H](O[C@@H]5O[C@H](CO)[C@@H](O)[C@H](O)[C@H]5NC(C)=O)[C@H]5NC(=O)[C@H](NC(O)[C@@H]6NC(=O)[C@@H](NC4=O)c4cc(O)cc(c4)Oc4cc3ccc4O)c3ccc(O)c(c3)-c3c(O)cc(O)cc3[C@H](C(=O)O)NC5=O)nn2)C1=O (stereo partly drawn)
## Output 73

====

System: MDCK
Assay: Cytotoxicity against MDCK cells assessed as reduction in cell viability after 3 days by MTS assay
Type: cell-based, Canis lupus familiaris
Conditions: dog, mdck, 72 h
# CC50 listing for each entry below
Response body: numeric value in µM, unit text excluded.

These solved cases illustrate the format of a correct answer.
>  <molecule>
CCCCCCOCc1cn(CCOCCOCCOCCOCc2cn([C@H]3C(=O)N[C@@H]4Cc5ccc(c(Cl)c5)Oc5cc6cc(c5O)Oc5ccc(cc5Cl)[C@@H](O[C@@H]5O[C@H](CO)[C@@H](O)[C@H](O)[C@H]5NC(C)=O)[C@H]5NC(=O)[C@H](NC(O)[C@@H]6NC(=O)[C@@H](NC4=O)c4cc(O)cc(c4)Oc4cc3ccc4O)c3ccc(O)c(c3)-c3c(O)cc(O)cc3[C@H](C(=O)O)NC5=O)nn2)nn1 (stereo not given in full)

>  <CC50 / µM>
51

$$$$
>  <molecule>
CCCCCCCCSC1=C(SCCCCCCCC)C(=O)N(Cc2cn(C3C(=O)N[C@@H]4Cc5ccc(c(Cl)c5)Oc5cc6cc(c5O)Oc5ccc(cc5Cl)[C@@H](O[C@@H]5O[C@H](CO)[C@@H](O)[C@H](O)[C@H]5NC(C)=O)[C@H]5NC(=O)[C@H](NC(O)[C@@H]6NC(=O)[C@@H](NC4=O)c4cc(O)cc(c4)Oc4cc3ccc4O)c3ccc(O)c(c3)-c3c(O)cc(O)cc3[C@H](C(=O)O)NC5=O)nn2)C1=O (stereo not given in full)

>  <CC50 / µM>
49

$$$$

Now let's try a different one.
## Input Return reported CC50. Input molecule: CCCCCCSC1=C(SCCCCCC)C(=O)N([C@H]2C(=O)N[C@@H]3Cc4ccc(c(Cl)c4)Oc4cc5cc(c4O)Oc4ccc(cc4Cl)[C@@H](O[C@@H]4O[C@H](CO)[C@@H](O)[C@H](O)[C@H]4NC(C)=O)[C@H]4NC(=O)[C@H](NC(O)[C@@H]5NC(=O)[C@@H](NC3=O)c3cc(O)cc(c3)Oc3cc2ccc3O)c2ccc(O)c(c2)-c2c(O)cc(O)cc2[C@H](C(=O)O)NC4=O)C1=O (stereo not given in full)
## Output 9.8
